- assay_system: T1, Papain (UniProt P00784 134-345)
- T1 chain: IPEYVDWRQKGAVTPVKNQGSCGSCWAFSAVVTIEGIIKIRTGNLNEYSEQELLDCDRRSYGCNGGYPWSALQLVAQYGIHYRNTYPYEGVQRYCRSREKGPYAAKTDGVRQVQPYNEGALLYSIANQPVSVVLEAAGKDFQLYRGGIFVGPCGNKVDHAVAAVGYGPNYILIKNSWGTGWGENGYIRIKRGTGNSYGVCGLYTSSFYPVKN
readout_label: Ki (nM)
Numeric only. Scale: nM

{"columns": ["binder", "units_of_measure", "Ki"],
 "data": [
  ["CysC-MpL fusion protein (cystatin C, (GGGGS)3 linker, MpL) (other, Cystatin C without its 26-residue signal peptide (stated for unlinked CysC, assumed for the fusion). (GGGGS)3 linker kept because it joins the two domains. Vector start Met not added; MpL Met1 may be absent in the fusion. Dimeric forms were observed; copies given per chain.) SSPGKPPRLVGGPMDASVEEEGVRRALDFAVGEYNKASNDMYHSRALQVVRARKQIVAGVNYFLDVELGRTTCTKTQPNLDNCPFHDQPHLKRKAFCSFQIYAVPWQGTMTLSKSTCQDAGGGGSGGGGSGGGGSMSTQVSSGQTYKITNVKAGTVIDLSGEDNKSIIGYPYHSGKNQQWTFNWTGKAWTLRSASSGSYLGIEGTPADGTRLVAVNDPFEWHIWRDEANENAFRIFVPFTNYNLDLSGYGDTTPGTPVQLWWTWEGLHQTWTIDRP", "nM", 41],
  ["Recombinant clitocypin (Clt) (natural protein, UniProt Q3Y9I6 1-152, looked up, also called rClt; unlinked Clt; source: E. coli, purified as described [19]) MASLEDGTYRLRAVTTSNPDPGVGGEYATVEGARQPVKAEPSTPPFFERQIWQVTRNSDGQSTIKYQGLNAPFEYGFSYDQLEQNAPVIAGDPKEYILQLVPSTTDVYIIRAPIQRVGVDVEVGVQGNNLVYKFFPVDGSGGDRPAWRFTRE", "nM", 60.8]
]}

Then there is this binder:
In: Any idea what its Ki is? The binder is Clt-MpL fusion protein (clitocypin, (GGGGS)3 linker, MpL) (other, Clitocypin species taken from the candidate for the printed accession Q3Y9I6; MpL species is printed. (GGGGS)3 linker kept because it joins the two domains. MpL Met1 may be absent in the fusion. Dimeric forms were observed; copies given per chain.) MASLEDGTYRLRAVTTSNPDPGVGGEYATVEGARQPVKAEPSTPPFFERQIWQVTRNSDGQSTIKYQGLNAPFEYGFSYDQLEQNAPVIAGDPKEYILQLVPSTTDVYIIRAPIQRVGVDVEVGVQGNNLVYKFFPVDGSGGDRPAWRFTREGGGGSGGGGSGGGGSMSTQVSSGQTYKITNVKAGTVIDLSGEDNKSIIGYPYHSGKNQQWTFNWTGKAWTLRSASSGSYLGIEGTPADGTRLVAVNDPFEWHIWRDEANENAFRIFVPFTNYNLDLSGYGDTTPGTPVQLWWTWEGLHQTWTIDRP
Out: 161
